Consider the following compounds; for each one, report its response vs control in vivo at 8 mg/kg.
Tested on: male CF1 mice
Assay: Hypolipidemic activity in CF1 mice, intraperitoneal dosing (serum cholesterol and triglyceride)
Assay type: in vivo
Conditions: Mus musculus, ip, 384 h; Table II; 8 mg./kg./day i.p., male CF1 mice, day 16; read-out: Serum Triglyceride Day 16
One number for each entry, in %.

- [BH3-][N+](C)(C)CCCCCCCCCCCC: 94
- [BH3-][N+](C)(C)CCCCCC: 80

Next:
Incoming: What value of response vs control in vivo at 8 mg/kg has been reported for the following compound? [BH3-][N+](C)(C)CCCCCCCCCCC
Outgoing: 75
